- assayMethodText: soluble fraction after stress (log2 fold change); higher = more stays soluble; pooled small domains, quantitative proteomics;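 further: 20 min heating vs room temperature control held 20 min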
- setupConditions: stress: 75 degC
reportedProperty: soluble fraction (log2)
Give bare numbers.

Known soluble fraction (log2) results, listed for orientation:
[
  {
    "inputSequence": "HMQISDAGALLDAVRRVLAENPAQVEQFRAGKEKVMGFLVGQVMRATGGKANPQMLNDVLREELS",
    "quantitativeReadout": -0.196
  },
  {
    "inputSequence": "HMDMSDFEVVRDMYLTGKVWNAGDIVEAKGITGEVVRKGTNYLSFVDKNGKVHKAWLHEIEL",
    "quantitativeReadout": -0.197
  }
]

Asked: # query: soluble fraction (log2) of entry HMTAFSEQLIKLRKQKGLSQEQLGAAVGVTRQTVSKWELGDTTPELGKLVQLSDYFQLSIDELVGH
Given back: -0.703

* * *

- assayMethodText: soluble fraction after stress (log2 fold change); higher = more stays soluble; pooled small domains, quantitative proteomics
- setupConditions: stress: 75 degC
What soluble fraction (log2) was measured for each of the following?
Numbers only.

[
  {
    "inputSequence": "HMSKPTLTLKSNAYPYNLNGERINNYLGFTYIKKGATLNYQGSKRINGQNYYYIGDGAYIKNTTVGSTNN",
    "quantitativeReadout": -1.23
  },
  {
    "inputSequence": "HMQALDETTVSRIRQKAAARNLLLKVLAGQLGVARPTLSNVLARREAPSAALAARIRAFLDSP",
    "quantitativeReadout": -1.45
  },
  {
    "inputSequence": "HMIEKVNDYVVRFANVNGTGSASANNLFALAIYRMGVPVTPKNIFPSNIQGLPTWFEVRVSGSGYLARRG",
    "quantitativeReadout": 0.162
  },
  {
    "inputSequence": "HMSSIDLTARSGRAALKHRLSLLGYEFSKIELETLYVRFIELADEKKLLHDEDLIELVKEKN",
    "quantitativeReadout": -3.12
  },
  {
    "inputSequence": "HMLKETGVITASVLNVREDIGTSSNIVAQLKKGMEVNILESRAIAGSETWYRIDAGSIKGWIFGDYI",
    "quantitativeReadout": -3.37
  },
  {
    "inputSequence": "HMGRSARVQQAVHQAVRALLEENDGERSALSVPLVAERAGVNSSTIYRRWGDLPRLLAAVASN",
    "quantitativeReadout": -0.686
  },
  {
    "inputSequence": "HMLRPMVAILNKNISKGQVISEDYIKFEVRPERQIHGAYHDISEVLGRKTKNNIAAGTILKVRHLDT",
    "quantitativeReadout": -0.69
  }
]

As a next step, examine the sequence that follows.
Asked: For HMTVPDVKGMGARDAVFLLETLGFKVRINGIGQVYEQSIDPGKSYSKGEFISLRL , what is its reported soluble fraction (log2)?
Given back: -0.699

* * *

- assayMethodText: soluble fraction after stress (log2 fold change); higher = more stays soluble; pooled small domains, quantitative proteomics
- setupConditions: stress: 75 degC
For each of the sequences below, state its soluble fraction (log2).
Answers are plain numbers.

Batch of 5 sequences: report soluble fraction (log2) for each.
1. HMTVKEYNRAVDEYSDAVWRFIRGNLRDEDRANDIVQDSFEKLWMHVTEIDYSVAKSWLFSTAYNNMIDI
2. HMILNPQELGERIRKLRLKRNKTQSYFADMLYISSSYLALIESGKRVPNLDLLIHIAKFTDVTLDYLVFG
3. HMQLYSLEVLSKKKVDLIENNKNLINLYFNKENGEYSYRLIFKNRKELYQVKDTLDNSSDVVSIKLDL
4. HMNTSITVPSLKGLSQEAATLKMERLGLHVEVSDTGFVRSLAFGTVLQQSIAPGEKVKPGRLVYITINSD
5. HMTPGPYETLKPAPLGSYIEPKIGFATAIEIARKEAVQLGIKTEAGGIWYGGDFPFYNVSFFDPDD

Given back:
1: -0.707; 2: -1.24; 3: -2.27; 4: -2.2; 5: -0.842

Origin of values: the domain aggregation screens of Martell et al. (2025)
